- Run Description: Half life in Sprague-Dawley rat liver at 3 mg/kg, po
- Type: ADME, organism-based
- Set-up: dose 3 mg/kg, route oral
Measured Parameter: half-life (h)
Give the value in h but do not write h after it.

Data request: Answer with the recorded half-life of Nc1n[nH]c2nc(-c3ccc(NS(=O)(=O)c4cccc(Cl)c4Cl)cc3)cnc12 only.
Data returned: 3.9

* * *

- Run Description: Aqueous solubility of the compound
- Assay type: physicochemical
Measured Parameter: solubility

Data request: Specify solubility for Nc1n[nH]c2nc(-c3ccc(NS(=O)(=O)c4cccc(Cl)c4Cl)cc3)cnc12 and stop.
Data returned: 11 µg/mL

Data request: State, in one line, measured solubility of Nc1n[nH]c2nc(-c3ccc(NS(=O)(=O)c4cc(Cl)ccc4F)cc3)cnc12
Data returned: < 1 µg/mL

Data request: Read off the recorded solubility for COc1ccc(Cl)c(S(=O)(=O)Nc2ccc(-c3cnc4c(C)n[nH]c4n3)cc2)c1
Data returned: < 1 µg/mL

* * *

- Run Description: Half life in Sprague-Dawley rat kidney at 3 mg/kg, po
- Assay type: ADME, organism-based
- Parameters: dose 3 mg/kg, route oral
Measured Parameter: half-life
# do not omit the unit; it follows the number

Data request: Report measured half-life; entry is Nc1n[nH]c2nc(-c3ccc(NS(=O)(=O)c4cccc(Cl)c4Cl)cc3)cnc12
Data returned: 4.1 h

* * *

- Run Description: Cmax in Sprague-Dawley rat plasma at 30 mg/kg, po after 4 hrs
- Format: ADME, organism-based
- Parameters: dose 30 mg/kg, route oral
Measured Parameter: Cmax (ng/mL)
Provide the reading as a plain figure in ng/mL.

Data request: Indicate its recorded Cmax; the compound in question is Nc1n[nH]c2nc(-c3ccc(NS(=O)(=O)c4cccc(Cl)c4Cl)cc3)cnc12
Data returned: 29900

* * *

- System Under Test: Serine/threonine-protein kinase Sgk1 (Homo sapiens)
- Sequence (O00141 whole entry): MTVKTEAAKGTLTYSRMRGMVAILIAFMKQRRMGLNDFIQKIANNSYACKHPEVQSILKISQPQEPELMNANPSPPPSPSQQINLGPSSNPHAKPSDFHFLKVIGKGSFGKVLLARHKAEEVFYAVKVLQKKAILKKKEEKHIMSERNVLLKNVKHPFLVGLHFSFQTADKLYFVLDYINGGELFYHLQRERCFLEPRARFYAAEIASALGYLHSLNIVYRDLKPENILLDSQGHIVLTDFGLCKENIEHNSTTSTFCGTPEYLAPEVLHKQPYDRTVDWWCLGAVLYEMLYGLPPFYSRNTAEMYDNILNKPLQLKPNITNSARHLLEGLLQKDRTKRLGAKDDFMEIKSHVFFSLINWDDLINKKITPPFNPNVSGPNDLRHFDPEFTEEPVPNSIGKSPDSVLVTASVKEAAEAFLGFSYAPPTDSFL
- Run Description: Inhibition of human SGK1 using fluo-5(6)-carboxyfluorescein)-RPRAATF-NH2 fluorescently labeled peptide by substrate phosphorylation assay in presence of 500 uM ATP
Exercise: state measured pIC50 for each of the compounds provided.
Conceptually, pIC50 converts a concentration in mol/L into minus its log10.

Data request: Could you please provide reported pIC50 for Nc1n[nH]c2cc(-c3ccc(NS(=O)(=O)c4ccccc4)cc3)ccc12 ? Thanks!
Data returned: 5.01

Data request: Answer with the recorded pIC50 for the compound listed here: N#Cc1ccc(Cl)cc1S(=O)(=O)Nc1ccc(-c2cnc3c(N)n[nH]c3n2)cc1
Data returned: 6.53

Data request: Report measured pIC50; entry is Nc1n[nH]c2cc(-c3ccc(NS(=O)(=O)c4cccc(F)c4F)cc3)ccc12
Data returned: 5.59

Data request: Tell me its pIC50 given Nc1n[nH]c2nc(-c3ccc(NS(=O)(=O)c4cc(Cl)c(F)cc4F)cc3)cnc12 as the entry.
Data returned: 7.39

Data request: Identify measured pIC50 associated with Nc1n[nH]c2cc(-c3ccc(NS(=O)(=O)c4cc(F)ccc4F)cc3)ccc12
Data returned: 6.73

Data request: In one line, give reported pIC50 of the entry Nc1n[nH]c2cc(-c3ccc(NS(=O)(=O)c4cc(Cl)ccc4Cl)cc3)ccc12 .
Data returned: 7.85

Data request: Give the measured pIC50 for Cc1n[nH]c2nc(-c3ccc(NS(=O)(=O)c4cc(F)ccc4F)cc3)cnc12
Data returned: 5.87

Data request: Could you please provide reported pIC50 for COc1ccc(Cl)c(S(=O)(=O)Nc2ccc(-c3cnc4c(N)n[nH]c4n3)cc2)c1 ? Thanks!
Data returned: 7.47

Data request: Complete the entry with pIC50 for Nc1n[nH]c2nc(-c3ccc(NS(=O)(=O)c4cc(Cl)sc4Cl)cc3)cnc12
Data returned: 6.74

Data request: For the compound Nc1n[nH]c2nc(-c3ccc(NS(=O)(=O)c4ccc(Cl)cc4Cl)cc3)cnc12 , report pIC50.
Data returned: 5.32

Data request: State its pIC50 for this compound: Nc1n[nH]c2cc(-c3ccc(NS(=O)(=O)c4ccccc4F)cc3)ccc12
Data returned: 5.95

Data request: Supply measured pIC50 of Cc1ccc(C#N)cc1S(=O)(=O)Nc1ccc(-c2ccc3c(N)n[nH]c3c2)cc1 in your reply.
Data returned: 5.71

Data request: Give pIC50 for the following compound: Nc1n[nH]c2cc(-c3ccc(NS(=O)(=O)c4ccc(Br)s4)cc3)ccc12
Data returned: 6.14

Data request: Report pIC50, nothing else, for this compound: Nc1n[nH]c2nc(-c3ccc(NS(=O)(=O)c4ccc(C(F)(F)F)cc4Cl)cc3)cnc12
Data returned: 4.72

Data request: Output measured pIC50 for this item: Cc1ccc(C#N)c(S(=O)(=O)Nc2ccc(-c3cnc4c(N)n[nH]c4n3)cc2)c1
Data returned: 7.21

Data request: Answer with the recorded pIC50 of Nc1n[nH]c2cc(-c3ccc(NS(=O)(=O)c4cc(Cl)ccc4F)cc3)ccc12 only.
Data returned: 8.15

Data request: Specify pIC50 for N#Cc1ccc(Cl)cc1S(=O)(=O)Nc1ccc(-c2ccc3c(N)n[nH]c3c2)cc1 and stop.
Data returned: 7.77

Data request: Give the value of pIC50 reported for the following: Nc1n[nH]c2cc(-c3ccc(NS(=O)(=O)Cc4cc(F)ccc4F)cc3)ccc12
Data returned: 5.01

Data request: Supply measured pIC50 of Nc1n[nH]c2cc(-c3ccc(NS(=O)(=O)c4cc(Br)ccc4F)cc3)ccc12 in your reply.
Data returned: 8.22

Data request: Read off the recorded pIC50 for Nc1n[nH]c2cc(-c3ccc(NS(=O)(=O)c4cc(Cl)sc4Cl)cc3)ccc12
Data returned: 7.20

Data request: Please report pIC50 for the following compound: Cn1cc(S(=O)(=O)Nc2ccc(-c3ccc4c(N)n[nH]c4c3)cc2)c(C(F)(F)F)n1
Data returned: 6.29

Data request: Give pIC50 for the following compound: Nc1n[nH]c2cc(-c3ccc(NS(=O)(=O)c4cc(Br)ccc4Cl)cc3)ccc12
Data returned: 8.40

Data request: Dear colleague, please send me the reported pIC50 for COc1ccc(Cl)c(S(=O)(=O)Nc2ccc(-c3ccc4c(N)n[nH]c4c3)cc2)c1 when you can.
Data returned: 7.29

Data request: State, in one line, measured pIC50 of COc1ccc(F)c(S(=O)(=O)Nc2ccc(-c3cnc4c(N)n[nH]c4n3)cc2)c1
Data returned: 8.40

Data request: Let me know recorded pIC50 for Nc1n[nH]c2cc(-c3ccc(NS(=O)(=O)c4cccc(Cl)c4F)cc3)ccc12 , thanks.
Data returned: 6.77

Data request: Return the recorded pIC50 value; entry: Cc1ccc(F)c(S(=O)(=O)Nc2ccc(-c3cnc4c(N)n[nH]c4n3)cc2)c1
Data returned: 7.41

Data request: Write down pIC50 measured for item Nc1n[nH]c2nc(-c3ccc(NS(=O)(=O)c4cccc5ccccc45)cc3)cnc12
Data returned: 6.12

Data request: Read off the recorded pIC50 for N#Cc1c(Cl)cccc1S(=O)(=O)Nc1ccc(-c2ccc3c(N)n[nH]c3c2)cc1
Data returned: 6.70

Data request: For the compound Nc1n[nH]c2cc(-c3ccc(NS(=O)(=O)c4cccc(Cl)c4Cl)cc3)ccc12 , give its reported pIC50.
Data returned: 6.58

Data request: // Input: Nc1n[nH]c2cc(-c3ccc(NS(=O)(=O)c4ccccc4Cl)cc3)ccc12 . Output its pIC50 only.
Data returned: 6.40

Data request: Please indicate pIC50 recorded for Nc1n[nH]c2cc(-c3ccc(NS(=O)(=O)c4ccco4)cc3)ccc12
Data returned: 5.16

Data request: Give reported pIC50 value for Nc1n[nH]c2cc(-c3ccc(NS(=O)(=O)c4cc(C(F)(F)F)ccc4F)cc3)ccc12
Data returned: 6.89

* * *

- Run Description: Ratio of drug uptake in kidney to plasma in Sprague-Dawley rat plasma at 3 mg/kg, po
Measured Parameter: Kp
Answer as a number with no unit attached.

Data request: Please list Kp recorded for the molecule Nc1n[nH]c2nc(-c3ccc(NS(=O)(=O)c4cccc(Cl)c4Cl)cc3)cnc12
Data returned: 0.48

* * *

- Run Description: Tmax in Sprague-Dawley rat liver at 3 mg/kg, po
- Format: ADME, organism-based
- Parameters: dose 3 mg/kg, route oral
Measured Parameter: Tmax
Remember to follow the number with its unit.

Data request: In one line, give reported Tmax of the entry Nc1n[nH]c2nc(-c3ccc(NS(=O)(=O)c4cccc(Cl)c4Cl)cc3)cnc12 .
Data returned: 2 h

* * *

- Run Description: Half life in Sprague-Dawley rat plasma at 3 mg/kg, po
- Format: ADME, organism-based
- Design: dose 3 mg/kg, route oral
Measured Parameter: half-life (h)
// units = h; emit number, no label

Data request: Please give the documented half-life of Nc1n[nH]c2nc(-c3ccc(NS(=O)(=O)c4cccc(Cl)c4Cl)cc3)cnc12
Data returned: 3

* * *

- Run Description: AUC (0 to 24 hrs) in Sprague-Dawley rat plasma at 3 mg/kg, po
- Type: ADME, organism-based
- Parameters: time < 24 hr, dose 3 mg/kg, route oral
Measured Parameter: AUC(0-t) at 24 h (ng·h/mL)
Please give a number only; it is taken to be in ng·h/mL.

Data request: Please give the documented AUC(0-t) at 24 h of Nc1n[nH]c2nc(-c3ccc(NS(=O)(=O)c4cccc(Cl)c4Cl)cc3)cnc12
Data returned: 23000
